# assay.system: ZNF239 (UniProt Q16600)
# Sequence (Q16600 whole entry, looked up): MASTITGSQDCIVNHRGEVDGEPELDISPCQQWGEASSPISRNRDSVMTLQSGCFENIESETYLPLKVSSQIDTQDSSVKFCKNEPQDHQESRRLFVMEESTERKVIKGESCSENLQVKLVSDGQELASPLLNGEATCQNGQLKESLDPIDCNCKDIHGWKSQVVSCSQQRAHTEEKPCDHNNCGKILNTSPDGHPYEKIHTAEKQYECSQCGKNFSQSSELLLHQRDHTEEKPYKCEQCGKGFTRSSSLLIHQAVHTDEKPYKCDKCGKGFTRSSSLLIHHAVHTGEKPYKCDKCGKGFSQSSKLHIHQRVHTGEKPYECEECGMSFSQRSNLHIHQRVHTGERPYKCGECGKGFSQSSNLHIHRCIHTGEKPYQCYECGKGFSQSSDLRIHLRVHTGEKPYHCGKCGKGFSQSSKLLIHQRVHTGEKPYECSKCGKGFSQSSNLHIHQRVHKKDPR
# assay.notes: log2 fold change, soluble protein after heating vs DMSO (PISA); higher = thermal stabilisation; K562 cells, 10 uM, 30 min; active = over 0.2 and 3.5 SD of the protein, either way, in both replicates (recomputed)
The full data set covers some 7,900 targets. This sample favours those with a hit. About 0.6% of all pairs of compound and target were hits.
Label satisfied for high-side log2 fold change (at or above -0.01) and not satisfied for low-side log2 fold change (below it).

// below: answered compounds
Determine whether measured log2 fold change meets or exceeds -0.01 for `CN1CCC(CNc2ccc3ncc(-c4cccc(OC(F)(F)F)c4)n3n2)CC1`
not satisfied

Decide: is the reported value of log2 fold change for `CCCCN(Cc1ccc(C(=O)NO)cc1)C(=O)Nc1ccccc1` equal to or greater than -0.01?
satisfied

Does the compound `CNC(=O)c1ccc(Nc2ncc(C(F)(F)F)c(NCc3nccnc3N(C)S(C)(=O)=O)n2)cc1` have recorded log2 fold change that is -0.01 or more?
not satisfied

Does the compound `CS(=O)(=O)N1CCN(Cc2cc3nc(-c4cccc5[nH]ncc45)nc(N4CCOCC4)c3s2)CC1` have recorded log2 fold change that is -0.01 or more?
not satisfied

Determine whether this compound has log2 fold change no lower than -0.01: `Cn1cncc1[C@@](N)(c1ccc(Cl)cc1)c1ccc2c(c1)c(-c1cccc(Cl)c1)cc(=O)n2C`
satisfied

Others:
Threshold query (log2 fold change >= -0.01) on `Cc1ccc(-n2nc(C(C)(C)C)cc2NC(=O)Nc2ccc(OCCN3CCOCC3)c3ccccc23)cc1`
satisfied

Does log2 fold change meet or surpass -0.01 for `COc1cc(C(=O)O)ccc1NC(=O)[C@@H]1N[C@@H](CC(C)(C)C)[C@](C#N)(c2ccc(Cl)cc2F)[C@H]1c1cccc(Cl)c1F` ?
not satisfied

# bool: log2 fold change of `NC1(c2ccc(-c3nc4ccn5c(=O)[nH]nc5c4cc3-c3ccccc3)cc2)CCC1` >= -0.01
not satisfied

====

# assay.system: ZDHHC7 isoform 2 (UniProt Q9NXF8)
# Sequence (Q9NXF8 whole entry, looked up, canonical isoform): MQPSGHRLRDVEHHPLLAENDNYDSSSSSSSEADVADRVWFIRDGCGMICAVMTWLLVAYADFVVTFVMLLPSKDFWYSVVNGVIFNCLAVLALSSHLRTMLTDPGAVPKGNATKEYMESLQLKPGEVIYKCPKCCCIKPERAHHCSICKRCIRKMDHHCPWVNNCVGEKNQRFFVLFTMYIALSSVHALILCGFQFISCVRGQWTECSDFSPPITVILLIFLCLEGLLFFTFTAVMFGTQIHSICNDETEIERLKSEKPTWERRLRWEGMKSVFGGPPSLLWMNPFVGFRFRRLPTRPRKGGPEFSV
# assay.notes: log2 fold change, soluble protein after heating vs DMSO (PISA); higher = thermal stabilisation; K562 cells, 10 uM, 30 min; active = over 0.2 and 3.5 SD of the protein, either way, in both replicates (recomputed)
Targets with a hit are over-represented here; the source holds about 7,900 in all. About 0.6% of all pairs of compound and target were hits.
Catalogue of log2 fold change readings, one per entry.

Use these answered entries as a reference point.
For the molecule `COc1cc2nc(-c3cc(F)ccc3O)nc(N[C@@H]3CNC[C@H]3C(C)(C)O)c2cc1OC` , what log2 fold change is on record?
-0.012 (inactive)

Tell me the measured log2 fold change of C[C@@H](Oc1cc(-c2cnn(C3CCNCC3)c2)cnc1N)c1c(Cl)ccc(F)c1Cl [crizotinib] , please.
-0.131 (inactive)

Quick one: log2 fold change of `C[C@@H](N)c1ccc(C(=O)Nc2ccnc3[nH]ccc23)cc1` ?
-0.065 (inactive)

Reported log2 fold change for `O=C1NC(=NCc2cccs2)S/C1=C\c1ccc2ncccc2c1` : what is it?
0.161 (inactive)

***
Would you mind telling me what log2 fold change value was observed for CS(=O)(=O)CCNCc1ccc(-c2ccc3ncnc(Nc4ccc(OCc5cccc(F)c5)c(Cl)c4)c3c2)o1 [lapatinib] ?
0.034 (inactive)

====

# assay.system: ZMAT2 (UniProt Q96NC0)
# Sequence (Q96NC0 whole entry, looked up): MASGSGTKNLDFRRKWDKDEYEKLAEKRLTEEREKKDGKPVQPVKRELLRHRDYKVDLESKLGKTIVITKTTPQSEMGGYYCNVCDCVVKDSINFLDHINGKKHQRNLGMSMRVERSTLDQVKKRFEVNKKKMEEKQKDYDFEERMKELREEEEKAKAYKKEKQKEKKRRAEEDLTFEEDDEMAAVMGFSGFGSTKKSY
# assay.notes: log2 fold change, soluble protein after heating vs DMSO (PISA); higher = thermal stabilisation; K562 cells, 10 uM, 30 min; active = over 0.2 and 3.5 SD of the protein, either way, in both replicates (recomputed)
The full data set covers some 7,900 targets. This sample favours those with a hit. About 0.6% of all pairs of compound and target were hits.
Answer with one of the outcomes given here: 1 = active, 0 = inactive

Consider the worked cases shown below.
Per the assay record, what outcome was assigned to `Cc1cccc(-c2[nH]c(C(C)(C)C)nc2-c2ccc3nccnc3c2)n1` ?
0

Assay result, entry `FC(F)(F)c1ccc(/C=C/c2nc(COc3ccc(CCCCn4ccnn4)cc3)co2)cc1` — outcome?
0

Outcome logged for `c1cn2cc(-c3ccc4cn[nH]c4c3)nc(Nc3ccc(N4CCOCC4)cc3)c2n1` in this assay:
0

Called result for `C[C@@H](N)c1ccc(C(=O)Nc2ccnc3[nH]ccc23)cc1`
0

Others:
# fetch the recorded call for `Cc1ncc(-c2ccnc(Nc3ccc(S(C)(=O)=O)cc3)n2)n1C(C)C` here
0

Kindly provide the recorded test outcome for the following molecule: CN(CCOc1ccc(C[C@@H]2SC(=O)NC2=O)cc1)c1ccccn1 (racemic)
0

Recorded call for `CCn1c(C(=O)N(C2CC2)C2CC2)cc2c3c(ncn3C)c(Nc3cc(C)n(C)n3)nc21` ?
0

Fill in: this test's call for `COc1cc2ncnc(Nc3ccc(F)c(Cl)c3)c2cc1OCCCN1CCOCC1` is ___
0

// return assay outcome for `CC[C@H](C)[C@H](NC(=O)[C@H]([C@@H](C)CC)N(C)C(C)=O)C(=O)N[C@H](C(=O)N[C@@H](CC(C)C)C(=O)[C@@]1(C)CO1)[C@@H](C)O`
0

Which outcome did this test record for the molecule `O=C1c2ccccc2-c2n[nH]c3cccc1c23` ?
0

====

# assay.system: ZMYM3 (UniProt Q14202)
# Sequence (Q14202 whole entry, looked up): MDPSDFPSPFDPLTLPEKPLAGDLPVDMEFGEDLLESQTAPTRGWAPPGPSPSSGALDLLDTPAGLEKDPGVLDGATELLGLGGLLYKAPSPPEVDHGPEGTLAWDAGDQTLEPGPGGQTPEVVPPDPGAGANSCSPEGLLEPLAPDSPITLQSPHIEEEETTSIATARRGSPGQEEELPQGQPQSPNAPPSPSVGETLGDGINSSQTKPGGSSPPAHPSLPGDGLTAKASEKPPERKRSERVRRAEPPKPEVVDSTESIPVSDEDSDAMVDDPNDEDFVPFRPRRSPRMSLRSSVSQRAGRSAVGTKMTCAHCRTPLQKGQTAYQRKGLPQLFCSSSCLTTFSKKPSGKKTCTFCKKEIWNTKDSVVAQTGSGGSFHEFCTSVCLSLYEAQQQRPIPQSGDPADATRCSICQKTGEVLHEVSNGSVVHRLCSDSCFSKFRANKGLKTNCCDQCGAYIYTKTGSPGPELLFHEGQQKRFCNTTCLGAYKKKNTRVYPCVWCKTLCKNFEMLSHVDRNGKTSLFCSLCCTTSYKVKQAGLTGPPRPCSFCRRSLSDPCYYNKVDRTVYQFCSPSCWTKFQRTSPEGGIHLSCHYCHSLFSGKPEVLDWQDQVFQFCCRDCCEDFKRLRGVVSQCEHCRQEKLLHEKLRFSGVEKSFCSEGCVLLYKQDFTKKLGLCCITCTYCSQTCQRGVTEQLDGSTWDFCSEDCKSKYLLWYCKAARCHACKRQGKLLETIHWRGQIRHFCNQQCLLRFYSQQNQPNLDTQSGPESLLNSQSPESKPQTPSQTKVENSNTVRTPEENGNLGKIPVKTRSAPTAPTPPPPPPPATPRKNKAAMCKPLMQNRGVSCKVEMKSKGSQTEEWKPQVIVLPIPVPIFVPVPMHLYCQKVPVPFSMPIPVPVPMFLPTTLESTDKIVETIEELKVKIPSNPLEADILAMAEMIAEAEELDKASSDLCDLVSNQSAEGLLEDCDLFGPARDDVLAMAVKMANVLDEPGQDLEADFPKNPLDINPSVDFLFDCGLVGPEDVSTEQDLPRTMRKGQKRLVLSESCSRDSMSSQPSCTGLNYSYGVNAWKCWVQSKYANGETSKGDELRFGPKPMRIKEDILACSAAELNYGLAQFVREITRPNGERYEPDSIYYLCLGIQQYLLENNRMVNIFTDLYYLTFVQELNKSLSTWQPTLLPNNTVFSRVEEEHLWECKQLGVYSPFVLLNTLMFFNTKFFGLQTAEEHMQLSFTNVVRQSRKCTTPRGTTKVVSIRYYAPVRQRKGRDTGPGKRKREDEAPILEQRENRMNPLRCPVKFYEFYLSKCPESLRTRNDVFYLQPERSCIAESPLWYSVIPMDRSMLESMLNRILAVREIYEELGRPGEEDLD
# assay.notes: log2 fold change, soluble protein after heating vs DMSO (PISA); higher = thermal stabilisation; K562 cells, 10 uM, 30 min; active = over 0.2 and 3.5 SD of the protein, either way, in both replicates (recomputed)
Targets with a hit are over-represented here; the source holds about 7,900 in all. About 0.6% of all pairs of compound and target were hits.
Each entry falls in a class defined on log2 fold change; the bands are zone 1 (below -0.01), zone 2 (-0.01 to below 0.04), zone 3 (0.04 or more)

See these solved cases before continuing.
Kindly state the category for this molecule: CNC(=O)c1ccc(Nc2ncc(C(F)(F)F)c(NCc3nccnc3N(C)S(C)(=O)=O)n2)cc1 [defactinib]
zone 1

Which of the defined bands does the recorded log2 fold change of CS(=O)(=O)CCNCc1ccc(-c2ccc3ncnc(Nc4ccc(OCc5cccc(F)c5)c(Cl)c4)c3c2)o1 [lapatinib] sit within?
zone 2

More entries:
Kindly identify the class of `CNC(=O)c1ccccc1Nc1nc(Nc2ccc(N3CCOCC3)cc2OC)ncc1Cl` .
zone 2

Exercise: read the entry Cc1cc(Nc2cc(N3CCN(C)CC3)nc(Sc3ccc(NC(=O)C4CC4)cc3)n2)n[nH]1 [tozasertib] and state which class it falls under.
zone 1

Hi there! Could you help me figure out the category for `NC1(c2ccc(-c3nc4ccn5c(=O)[nH]nc5c4cc3-c3ccccc3)cc2)CCC1` please?
zone 1

Bin this entry: CN1CCN(CCOc2cc(OC3CCOCC3)c3c(Nc4c(Cl)ccc5c4OCO5)ncnc3c2)CC1 [saracatinib]
zone 3

Class (by measured log2 fold change) for C=CC(=O)N1CCC[C@@H](n2nc(-c3ccc(Oc4ccccc4)cc3)c3c(N)ncnc32)C1 [ibrutinib]
zone 2

Category of `Cc1cccc(CC(=O)N2CCc3c2ccc(-c2cn(C)c4ncnc(N)c24)c3F)n1` , please.
zone 1

State the class of the molecule shown: `O=C1c2ccccc2-c2n[nH]c3cccc1c23`
zone 1

Tag the class for `Cc1ccc(NC(=O)c2cccc(N(C)C)c2)cc1NC(=O)c1ccc(O)cc1`
zone 3

Textbook exercise: identify the category of the molecule given here, Cc1cc(Nc2cc(CN3CCOCC3)c3nc(C)c(Cc4ccc(Cl)cc4F)n3n2)n[nH]1 [gandotinib] , according to its measured value.
zone 3

Class (by measured log2 fold change) for `Fc1ccc(Cl)cc1-c1nc(Nc2ccncc2)c2nccnc2n1`
zone 1

====

# assay.system: YIPF4 (UniProt Q9BSR8)
# Sequence (Q9BSR8 whole entry, looked up): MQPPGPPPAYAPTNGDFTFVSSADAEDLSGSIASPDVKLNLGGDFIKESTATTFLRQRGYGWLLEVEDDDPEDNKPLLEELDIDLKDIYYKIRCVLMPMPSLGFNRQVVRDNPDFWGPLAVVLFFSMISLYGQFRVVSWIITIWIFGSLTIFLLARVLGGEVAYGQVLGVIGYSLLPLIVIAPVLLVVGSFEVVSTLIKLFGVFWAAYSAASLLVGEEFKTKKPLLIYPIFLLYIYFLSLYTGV
# assay.notes: log2 fold change, soluble protein after heating vs DMSO (PISA); higher = thermal stabilisation; K562 cells, 10 uM, 30 min; active = over 0.2 and 3.5 SD of the protein, either way, in both replicates (recomputed)
About 7,900 targets were measured; listed, in parts, are those with a hit and a random draw of the rest. About 0.6% of all pairs of compound and target were hits.
# Lookup of reported log2 fold change keyed by entry

// worked examples, log2 fold change included
May I ask what log2 fold change has been recorded for `C[C@@H](Oc1cc(-c2cnn(C3CCNCC3)c2)cnc1N)c1c(Cl)ccc(F)c1Cl` ?
0.054 (inactive)

Entry under review: `c1cn2cc(-c3ccc4cn[nH]c4c3)nc(Nc3ccc(N4CCOCC4)cc3)c2n1` . Reported log2 fold change?
-0.015 (inactive)

More entries:
// query log2 fold change value for entry `Cc1ccc2c(=O)c3ccccc3n(CCCN)c2c1C`
0.215 (inactive)

Endpoint output: log2 fold change of CN(CCOc1ccc(C[C@@H]2SC(=O)NC2=O)cc1)c1ccccn1 (racemic) . Value?
0.005 (inactive)

What does the data say about its log2 fold change? Entry: `Cc1cc(Nc2cc(N3CCN(C)CC3)nc(Sc3ccc(NC(=O)C4CC4)cc3)n2)n[nH]1`
0.079 (inactive)

Record request: log2 fold change value, item CC1=C(C(=O)Nc2cc3cn[nH]c3cc2F)C(c2ccc(C(F)(F)F)cc2)CC(=O)N1 (stereo not drawn)
-0.019 (inactive)

Quick check: log2 fold change of `Cn1cc(-c2ccc3nnc(C(F)(F)c4ccc5ncccc5c4)n3n2)cn1` ?
0.108 (inactive)

May I ask what log2 fold change has been recorded for `O=C(CCCCCCNC(=O)c1cnc(N(c2ccccc2)c2ccccc2Cl)nc1)NO` ?
0.042 (inactive)

Ref: the supplement of paper PMC10849652
